- measurement_description: gradient 5% acetonitrile 3 min, to 50% in 2 min, to 85% in 15 min, held 3 min, 100 µL/min
- condition: column: Zorbax Extend-C18 2.1 x 50 mm; eluents: water / acetonitrile, 0.1% formic acid
observed_property: RP-LC retention time (s)

CC(C)c1ccc2c(c1)-c1ccccc1S(=O)(=O)N2CC(=O)NCc1ccccn1: 757
COc1ncccc1CNC(=O)c1ccc(C)nc1: 562
CC(C)C(=O)N1CCCn2nc(-c3cccnc3)cc2C1: 579
Cc1ccc(CSc2nccc3c2ccn3CC(=O)NCc2ccco2)cc1: 729
COc1ccc(NC(=O)C2CCCN(c3nnc4ccc(Cl)cn34)C2)cc1OC (stereo not given): 701
Cc1ccc(CNC(=O)Cc2csc3nc(-c4cccc(Br)c4)cn23)cc1: 963
c1ccc(CNc2nnc(-c3nc(C4CC4)no3)c3ccccc23)cc1: 878
Cc1cccc(CN2CC=C(C(=O)N3CCN(c4ccccc4C)CC3)CC2)c1: 726
COCCN1C(=O)c2cccn2CC1CNC(=O)c1sc(C)nc1C (stereo not given): 606
O=C(c1ccccc1Cl)N1CCC(n2cnnc2C2CC2)CC1: 620
CCN1CCN(c2cc(C)c3cc(NC(=O)COc4ccc(F)cc4)ccc3n2)CC1: 594
CC(=O)N1c2ccc(S(=O)(=O)N3CCCCCC3)cc2CC1C(=O)NCCCc1ccccc1 (stereo not given): 975
O=C(CCC1CCCCC1)Nc1nc(-c2ccc3c(c2)NC(=O)CO3)cs1: 1020
CC(=O)NCC(=O)N1CCCn2cc(-c3ccccc3)nc21: 570
CCn1cnc2ccc(C(=O)NC3CCCC3)cc2c1=O: 688
CC(C)NC(=O)c1ccc(OCC2CCCN(C(=O)c3ccc(Br)o3)C2)cc1 (stereo not given): 876
Cc1c(Cl)cccc1NC(=O)N1CCCC(Cn2cnc3cccnc32)C1 (stereo not given): 747
Cn1nccc1-c1cccc(-c2noc(-c3cccs3)n2)c1: 1030
CCOC(=O)c1nc(N(CC)Cc2ccccc2)c2ccccc2n1: 899
COc1ccc(C2C(C(=O)NCCC(C)C)CCC(=O)N2c2cc(OC)c(OC)c(OC)c2)cc1 (stereo not given): 744

###

- measurement_description: gradient 5% acetonitrile 3 min, to 50% in 2 min, to 85% in 15 min, held 3 min, 100 µL/min
- condition: column: Zorbax Extend-C18 2.1 x 50 mm; eluents: water / acetonitrile, 0.1% formic acid
observed_property: RP-LC retention time (s)

Cc1nn(-c2ccc(C(=O)N3CCCCC3)cc2)c2c1C(=O)CCC2: 721
Cc1noc(C)c1Cn1cccc(S(=O)(=O)N2CCCC2)c1=O: 644
CC(C)N1C(=O)c2cccnc2Sc2cc(C(=O)N3CCCCC3)ccc21: 769
CCN(Cc1cnn(CC)c1)C(=O)C1CN(C(=O)c2ccccc2)CC12CCCCC2 (stereo not given): 812
CN(C)c1ccc(-c2nc3cnc(Br)cn3c2Nc2ccc3c(c2)OCCO3)cc1: 881

###

- measurement_description: gradient 5% acetonitrile 3 min, to 50% in 2 min, to 85% in 15 min, held 3 min, 100 µL/min
- condition: column: Zorbax Extend-C18 2.1 x 50 mm; eluents: water / acetonitrile, 0.1% formic acid
observed_property: RP-LC retention time (s)

Past entries and their recorded results:
CC12CCC(C1)C(C)(C)C2OC(=O)c1ccccc1C(=O)O (centres undefined): 1130
Nc1nc(Nc2ccccc2F)nc2cccc(F)c12: 615

1. COc1ccc2c(c1)c(CN1CCC(C(=O)NCCC3=CCCCC3)CC1)cn2C
2. Cc1ccc(S(=O)(=O)N2CCCC2c2nc(-c3ccc(F)cc3)no2)cc1Cl (centres undefined)
Could you tell me which of 1 and 2 has the lower RP-LC retention time reading? Please reply using the label of the selected record.
1
(1: 730 s, 2: 1230 s)

###

- measurement_description: gradient 5% acetonitrile 3 min, to 50% in 2 min, to 85% in 15 min, held 3 min, 100 µL/min
- condition: column: Zorbax Extend-C18 2.1 x 50 mm; eluents: water / acetonitrile, 0.1% formic acid
observed_property: RP-LC retention time (s)

Past entries and their recorded results:
Cc1cc(-c2c(C)sc(C)c2S(=O)(=O)NCc2ccc(Cl)cc2)n[nH]1: 1090
Cc1ccc(Nc2c(-c3ccc(O)cc3)nc3ccc(Br)cn23)cc1: 726
COC(=O)c1ccccc1NC(=O)N1CCC(C(=O)NCc2csc(-c3ccccc3)n2)CC1: 902

A. COC1CCC12CCN(C(=O)c1ccc(C)s1)CC2 (stereo not given)
B. O=C1NCC(=O)N2CC3(CCN(C(=O)C4CCCCC4)CC3)CC12 (stereo not given)
Could you tell me which of A and B has the lower RP-LC retention time reading? Please reply using the label of the selected record.
B
(B: 624 s, A: 895 s)

I. CCCN1C(=O)c2[nH]nc(-c3ccc(OC)cc3)c2C1c1cccnc1 (stereo not given)
II. Cc1ccc(-c2ncc(NC(=O)CC(C)C)cn2)cc1
Given the listed records, identify the one among I and II with higher RP-LC retention time. Please reply using the label of the selected record.
II

A. Cc1cc(C)n(-c2ccnc(NCCc3ccccn3)n2)n1
B. CC(C)NC(=O)c1ccc(OCC2CCCN2C(=O)c2ccc(F)c(F)c2)cc1 (stereo not given)
Could you tell me which of A and B has the lower RP-LC retention time reading? Please reply using the label of the selected record.
A

A. CCc1cccc(NC(=O)Cn2ccc3sccc3c2=O)c1
B. CCOC(=O)c1cccc(NC(=O)N2CCc3cn(C)c4cccc(c34)C2)c1
Given the listed records, identify the one among A and B with higher RP-LC retention time. Please reply using the label of the selected record.
B

###

- measurement_description: gradient 5% acetonitrile 3 min, to 50% in 2 min, to 85% in 15 min, held 3 min, 100 µL/min
- condition: column: Zorbax Extend-C18 2.1 x 50 mm; eluents: water / acetonitrile, 0.1% formic acid
observed_property: RP-LC retention time (s)

Past entries and their recorded results:
CC(C)Cn1cc(S(=O)(=O)Nc2ccc(Cl)cc2F)c2cccnc21: 1010
COc1ccc(-c2ccc(=O)n(Cc3nc(-c4ccccc4)no3)n2)cc1: 954
CCS(=O)(=O)N1CC(=O)N(c2cc(C)cc(C)c2)C(C)(C(=O)NC2CCCCCC2)C1 (stereo not drawn): 935
CCN(Cc1ccccc1)C(=O)Cn1cc2c(n1)CCCCCC2: 1020
Cc1ccc(CNC(=O)C2(C)CN(S(C)(=O)=O)CC(=O)N2c2cccc(C)c2C)cc1 (stereo not drawn): 856
CCNC(=O)c1ccc(-c2ccc3c(c2)CCN3C(C)=O)cc1: 691

P. CCC1CCCCN1C(=O)CC1CCN(S(=O)(=O)c2ccc3c(c2)oc(=O)n3C)CC1 (stereo not drawn)
Q. NC(=O)C1CCN(C(=O)c2cn(-c3cccc(F)c3)nn2)CC1
Given the listed records, identify the one among P and Q with higher RP-LC retention time. Please reply using the label of the selected record.
P
(P: 872 s, Q: 608 s)

1. COc1ccc(F)cc1S(=O)(=O)NCCOc1ccc(-c2ccco2)nn1
2. CCOc1cc(-c2nc(C3CC(=O)N(c4ccc(Cl)cc4)C3)no2)cc(OCC)c1OCC (stereo not drawn)
Could you tell me which of 1 and 2 has the lower RP-LC retention time reading? Please reply using the label of the selected record.
1

###

- measurement_description: gradient 5% acetonitrile 3 min, to 50% in 2 min, to 85% in 15 min, held 3 min, 100 µL/min
- condition: column: Zorbax Extend-C18 2.1 x 50 mm; eluents: water / acetonitrile, 0.1% formic acid
observed_property: RP-LC retention time (s)

Past entries and their recorded results:
CC(NC(=O)c1ccc2c(c1)OCO2)C(=O)Nc1nc2ccccc2[nH]1 (centres undefined): 623
Cc1ccc(C)c(NC(=O)N2CCC3(CC2)NC(=O)c2ccccc2O3)c1: 766
COc1ccc(NC(=O)Cn2nc3n(c2=O)CCCC3)cc1Cl: 674

P. O=C(Nc1nnc(-c2cccs2)o1)c1cccc(N2C(=O)CCC2=O)c1
Q. Cc1ccc(CNC(=O)C2(C)CCCN(C(=O)Nc3ccccc3Br)C2)cc1 (centres undefined)
Could you tell me which of P and Q has the lower RP-LC retention time reading? Please reply using the label of the selected record.
P

a. CN1CCN(C(=O)Cn2cccc2-c2nc(-c3ccccc3)cs2)CC1
b. O=c1n(Cc2nc(-c3ccc(OC(F)(F)F)cc3)no2)nc2ccc(-c3ccccc3)nn12
Given the listed records, identify the one among a and b with higher RP-LC retention time. Please reply using the label of the selected record.
b

###

- measurement_description: gradient 5% acetonitrile 3 min, to 50% in 2 min, to 85% in 15 min, held 3 min, 100 µL/min
- condition: column: Zorbax Extend-C18 2.1 x 50 mm; eluents: water / acetonitrile, 0.1% formic acid
observed_property: RP-LC retention time (s)

CCOc1ccc(-c2cc3c(=O)n(Cc4nc(-c5ccccc5Cl)no4)ncn3n2)cc1: 1150
Cc1ccc(C)c(NC(=O)c2csc(-c3ccc(N4CCCC4)nc3)n2)c1: 830
COc1ccc2c(=O)oc3c(OC)cc(CCN(C)C)c4c(=O)oc1c2c34: 689
COc1ccc(-c2noc(C3CC(=O)N(c4ccc(F)cc4)C3)n2)cc1 (centres undefined): 912
O=C(c1ccc2ncccc2c1)N1CCN(c2cc(-c3cccs3)[nH]n2)CC1: 641
CCCCN1C(=O)c2cc(S(=O)(=O)Nc3ccccc3C)ccc2Oc2cccnc21: 1130
CCOc1ccc(C(=O)NC2CCN(c3cc(-c4ccc(OC)cc4)[nH]n3)C2)cc1OCC (centres undefined): 742

I. O=C1C(N2CCN(S(=O)(=O)c3ccc(F)cc3F)CC2)CCN1Cc1cccnc1 (centres undefined)
II. CC(=O)c1cccc(NC(=O)c2cnn3c4c(cnc23)CCCCCC4)c1
Could you tell me which of I and II has the lower RP-LC retention time reading? Please reply using the label of the selected record.
I
